Across several publications, the following pKi results were reported for Adenosine receptor A1 (Homo sapiens, UniProt P30542).
pKi: −log10 of the molar value.
Decide by pKi: equal to or exceeding 6 means 1 (yes), less means 0 (no).

Completed entries (count: 10):
>  <compound>
O=c1c(-c2ccccc2)nnc2n(Cc3ccccc3)c3ccccc3n12

>  <group label>
1 (yes)

$$$$
>  <compound>
COc1ccc(C(=O)Nc2nc(-c3ccccc3)c(C(=O)c3ccc(OC)cc3)s2)cc1

>  <group label>
1 (yes)

$$$$
>  <compound>
CNc1nc(-n2cc(-c3cccnc3)cn2)nc2c1ncn2C1O[C@H](CO)[C@@H](O)[C@H]1O (some centres undefined)

>  <group label>
0 (no)

$$$$
>  <compound>
Nc1nc(Br)cn2cc(-c3ccccc3)nc12

>  <group label>
1 (yes)

$$$$
>  <compound>
CC(=O)Nc1cc(-c2ccco2)nc(-c2ccco2)n1

>  <group label>
1 (yes)

$$$$
>  <compound>
CCCn1c(=O)c2c(cc(-c3ccccc3)n2O)n(CCC)c1=O

>  <group label>
1 (yes)

$$$$
>  <compound>
Cc1nc(-c2nc(N(C)C)nc3ccsc23)sc1C

>  <group label>
1 (yes)

$$$$
>  <compound>
CCCn1c(=O)c2[nH]c(-c3ccc(OCc4noc(-c5ccc(OC)cc5)n4)cc3)nc2n(CCC)c1=O

>  <group label>
0 (no)

$$$$
>  <compound>
Nc1nc(-c2ccc(NC(=O)CCN3CCCC3)cc2)cn2c(=O)n(-c3ccccc3)nc12

>  <group label>
1 (yes)

$$$$
>  <compound>
CCOC(=O)c1nc(NC(=O)c2ccc(Cl)c(Cl)c2)nc2nn(CCc3ccccc3)cc12

>  <group label>
0 (no)

$$$$

Query: Hi team, for O=C(Nc1ncc(C(=O)NCCc2ccccc2)c2nc(-c3ccco3)nn12)NC1CCCCC1 , is the recorded pKi at or above 6?
Reply: 0 (no)

Query: Could you please find out whether COc1ccc(N(C)C(C)=O)c2sc(NC(=O)c3ccc(F)cc3)nc12 has pKi that meets 6 or exceeds it?
Reply: 1 (yes)

Query: Reported pKi at or above 6? COc1ccc(-n2nc3c(NS(=O)(=O)c4ccccc4)nc4ccccc4n3c2=O)cc1
Reply: 0 (no)

Query: Record CC(C)Cn1c(=O)[nH]c2nc(-c3cnn(Cc4cccc(F)c4)c3)[nH]c2c1=O ; criterion: pKi no lower than 6. Met?
Reply: 0 (no)

Query: State whether the measured pKi reaches 6, counting equality as reaching it, for CCn1c(=O)[nH]c2nc(-c3cnn(Cc4cccc(F)c4)c3)[nH]c2c1=O
Reply: 0 (no)

Query: State whether the measured pKi reaches 6, counting equality as reaching it, for CCNC(=O)[C@H]1O[C@@H](n2cnc3c(Nc4ccc(OCC(=O)Nc5ccc(F)cc5)cc4)ncnc32)[C@H](O)[C@@H]1O
Reply: 1 (yes)

Query: Answer whether pKi of CCCn1c(=O)[nH]c2nc(-c3cnn(Cc4cc(-c5ccc(Cl)cc5)on4)c3)[nH]c2c1=O is greater than or equal to 6.
Reply: 0 (no)
